The reported measurements were obtained from paper PMC9924185.

cond: plasma; Long term stability 3 months at − 80 °C; 500.00 ng/mL (MQC)
Measured concentration: recorded values

# compound, Measured concentration (ng/mL)
rows = [
    ("C=C1CC[C@@H]2[C@](C)(CO)[C@H](O)CC[C@@]2(C)[C@@H]1C/C=C1/C(=O)OC[C@H]1O [AP1, andrographolide]", 458.87),
    ("C=C1CC[C@@H]2[C@](C)(CO)[C@H](O)CC[C@@]2(C)[C@@H]1CCC1=CCOC1=O [AP6, 14-deoxyandrographolide]", 462.16),
    ("C=C1CC[C@@H]2[C@](C)(CO[C@@H]3O[C@H](CO)[C@@H](O)[C@H](O)[C@H]3O)CCC[C@@]2(C)[C@@H]1CCC1=CCOC1=O [AP4, neoandrographolide]", 473.25),
    ("C=C1CC[C@@H]2[C@](C)(CO)[C@H](O)CC[C@@]2(C)[C@@H]1/C=C/C1=CCOC1=O [AP3, 14-deoxy-11, 12-didehydroandrographolide]", 471.59),
]

* * *

cond: plasma; Long term stability 3 months at − 80 °C; 2.50 ng/mL (LQC)
Catalogue of Measured concentration readings, one per entry.
propertyMeasured: Measured concentration (ng/mL)

# molecule, propertyMeasured, valueUnits, measured
measured = [
    ("C=C1CC[C@@H]2[C@](C)(CO)[C@H](O)CC[C@@]2(C)[C@@H]1C/C=C1/C(=O)OC[C@H]1O [AP1, andrographolide]", "Measured concentration", "ng/mL", 2.36),
    ("C=C1CC[C@@H]2[C@](C)(CO)[C@H](O)CC[C@@]2(C)[C@@H]1/C=C/C1=CCOC1=O [AP3, 14-deoxy-11, 12-didehydroandrographolide]", "Measured concentration", "ng/mL", 2.18),
    ("C=C1CC[C@@H]2[C@](C)(CO[C@@H]3O[C@H](CO)[C@@H](O)[C@H](O)[C@H]3O)CCC[C@@]2(C)[C@@H]1CCC1=CCOC1=O [AP4, neoandrographolide]", "Measured concentration", "ng/mL", 2.33),
    ("C=C1CC[C@@H]2[C@](C)(CO)[C@H](O)CC[C@@]2(C)[C@@H]1CCC1=CCOC1=O [AP6, 14-deoxyandrographolide]", "Measured concentration", "ng/mL", 2.22),
]

* * *

experimentSummary: Clinical pharmacokinetics in plasma after single oral administration of A. paniculata extract
Assay type: in vivo, human
cond: human; parent compound in plasma; n = 4; single oral dose of extract (60 mg andrographolide); mean ± SD

# compound, valueUnits, Vd/F
measured = [
    ("C=C1CC[C@@H]2[C@](C)(CO)[C@H](O)CC[C@@]2(C)[C@@H]1C/C=C1/C(=O)OC[C@H]1O [AP1, andrographolide]", "L/kg", 4.58),
    ("C=C1CC[C@@H]2[C@](C)(CO[C@@H]3O[C@H](CO)[C@@H](O)[C@H](O)[C@H]3O)CCC[C@@]2(C)[C@@H]1CCC1=CCOC1=O [AP4, neoandrographolide]", "L/kg", 0.65),
    ("C=C1CC[C@@H]2[C@](C)(CO)[C@H](O)CC[C@@]2(C)[C@@H]1CCC1=CCOC1=O [AP6, 14-deoxyandrographolide]", "L/kg", 1.93),
    ("C=C1CC[C@@H]2[C@](C)(CO)[C@H](O)CC[C@@]2(C)[C@@H]1/C=C/C1=CCOC1=O [AP3, 14-deoxy-11, 12-didehydroandrographolide]", "L/kg", 0.73),
]
